- target: T1, human TIGIT on cells (human, UniProt Q495A1 22-141)
- T1 construct: also called Expi293 human TIGIT over-expressing cells
- T1 sequence: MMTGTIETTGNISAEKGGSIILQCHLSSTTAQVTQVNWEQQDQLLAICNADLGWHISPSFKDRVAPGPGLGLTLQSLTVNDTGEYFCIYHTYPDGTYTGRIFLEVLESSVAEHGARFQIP
- method: FACS blocking: Expi293 human TIGIT cells pre-incubated with mAb, then human PVR-m2aFc; lower gMFI = more blocking

| binder | gMFI of bound PVR-m2aFc at 266 pM mAb |
| --- | --- |
| BM26 hIgG4 (antibody, V domains shown, benchmark anti-human TIGIT antibody, human IgG4 with S241P; also called BM26-H4; WO2016/028656A1 Clone 3106 as hIgG4) VH: EVQLQQSGPELVKPGSSVKMSCKASGYTFSSYVMHWVKQKPGQGLEWIGYIDPYNDGAKYNEKFKGKATLTSDKSSSTAYMELSSLTSEDSAVYYCARGGPYGWYFDVWGAGTTVTVSS VL: DIQMTQSPASLSASVGETVTITCRASEHIYSYLSWYQQKQGKSPQLLVYNAKTLAEGVPSRFSGSGSGTQFSLKINSLQPEDFGTYYCQHHFGSPLTFGAGTTLELKR | 719 |
